This collection of values is drawn from ChEMBL document CHEMBL1145453.

# target entity: Hypoxia inducible factors; HIF-1-alpha, HIF-2-alpha (Homo sapiens, UniProt Q16665+Q99814)
# experimental details: Inhibition of HIF1 activation in human AGS cells assessed as inhibition of hypoxia-induced luciferase expression after 16 hrs by reporter assay
# Format: cell-based
Consider the following molecules; for each one, report its IC50.
Field: numeric (µM). Do not append units.

## Input What value of IC50 has been recorded for this entry: Cc1cccc2c3c(ccc12)C(=O)C(C(C)C)=CC3=O [12-DEOXYTANSHINQUINONE B]
## Output 15.1

## Input Check Cc1coc2c1C(=O)C(=O)c1c-2ccc2c1CCCC2(C)C [TANSHINONE IIA] too.
## Output 7.53
